FYI, the data here is from paper PMC8294059.

target: HLA-DRB1*0301 (Homo sapiens, UniProt P01903+P01911, A100K/A102G/A103R/A169T/F55Y/I96L/K41T/L162R/M171V/P40S/Q125H/Q178H/Q39Y/R42S/S66N/T106N/T262R/W38E/Y61H); test: biochemical; assay type: binding; details: binding inhibition assay; NB = non-binder (no dose-dependent inhibition); read-out: DRB1*0303 IC50
Sequence (P01903 26-254 limits assumed, other chains not shown): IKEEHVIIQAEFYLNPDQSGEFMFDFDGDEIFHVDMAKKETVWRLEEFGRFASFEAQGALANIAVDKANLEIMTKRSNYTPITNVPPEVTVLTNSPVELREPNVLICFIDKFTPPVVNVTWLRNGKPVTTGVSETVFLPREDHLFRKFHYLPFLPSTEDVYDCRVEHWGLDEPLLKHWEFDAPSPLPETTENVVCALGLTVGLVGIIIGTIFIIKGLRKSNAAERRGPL
Where no end group is shown, it is not given here.
Reported pIC50 values are given for each entry in this list.
// field semantics: pIC50 = negative decimal log of concentration (mol/L)

// worked examples, pIC50 included
substance	pIC50
Ac-DGLKYLFIPSHNSFIKKY-NH2 [RH5_004]	4.28
Ac-DELLKRILDMSNEYSLFITSD-NH2 [RH5_011]	4.96

(Q) Fill in the blank: the reported pIC50 of TCLINNSSYIATTALSHPIE-NH2 [AMA1_007] is ____.
(A) 6.52
